Target: ~100 representative kinases (Homo sapiens)
Construct: Recombinant protein kinase domains with a concentration of 2 μM
Sequence (P45984 whole entry, the tested form may be a part): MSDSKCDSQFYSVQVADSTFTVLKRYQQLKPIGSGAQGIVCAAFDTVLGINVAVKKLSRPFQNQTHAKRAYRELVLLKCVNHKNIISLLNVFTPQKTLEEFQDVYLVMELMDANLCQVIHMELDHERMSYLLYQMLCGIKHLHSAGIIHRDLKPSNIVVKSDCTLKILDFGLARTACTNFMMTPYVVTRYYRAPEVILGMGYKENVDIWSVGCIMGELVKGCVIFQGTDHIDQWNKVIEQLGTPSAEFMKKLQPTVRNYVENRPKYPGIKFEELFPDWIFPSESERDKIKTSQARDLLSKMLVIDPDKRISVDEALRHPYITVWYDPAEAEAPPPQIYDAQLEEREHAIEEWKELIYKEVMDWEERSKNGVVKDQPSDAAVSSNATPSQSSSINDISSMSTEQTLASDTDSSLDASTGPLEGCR
Test: DSF 100 kinase selectivity screen;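 also: compound tested at 20 µM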
Type: binding
Conditions: protein MAPK9; average of three replicates
Measured property: dTm (K)

As a guide, the following entries are already answered.
COc1ccc(NC(=O)C2(C(=O)Nc3cccc(-c4c[nH]c5ncnc(N6CCOCC6)c45)c3)CC2)cc1    1.53
Cc1cc(NC(=O)C2(C(=O)Nc3cccc(-c4c[nH]c5ncnc(N6CCOCC6)c45)c3)CC2)ccc1F    6.61
CC(C)(C)c1cc(NC(=O)Nc2cccc(-c3c[nH]c4ncnc(N5CCOCC5)c34)c2)n(-c2ccc3ncccc3c2)n1    6.00
O=C(Nc1cccc(-c2c[nH]c3ncnc(N4CCOCC4)c23)c1)C1(C(=O)Nc2ccc(F)c(F)c2)CC1    2.95
Cc1ccc(C(=O)Nc2ccc(CN3CCN(C)CC3)c(C(F)(F)F)c2)cc1C#Cc1c[nH]c2ncnc(N3CCOCC3)c12    5.51
COc1cc(C(=O)N2CCOCC2)c(F)cc1Nc1nc(N(C)C)c2c(Cl)c[nH]c2n1    2.71
O=C(Nc1cc(F)cc(Br)c1)C1(C(=O)Nc2cccc(-c3c[nH]c4ncnc(N5CCOCC5)c34)c2)CC1    4.80
Cn1cc(-c2c[nH]c3ncnc(N4CCOCC4)c23)cc1C#N    0.17

a = COc1cc(S(C)(=O)=O)ccc1Nc1nc(N(C)C)c2c(Cl)c[nH]c2n1
b = Cc1cc(NC(=O)C2(C(=O)Nc3ccc(F)cc3)CC2)cc(-c2c[nH]c3ncnc(N4CCOCC4)c23)c1
c = O=C(Nc1cccc(-c2c[nH]c3ncnc(N4CCOCC4)c23)c1)C1(C(=O)Nc2ccc(F)c(Br)c2)CC1
d = COc1cc(NC(=O)C2(C(=O)Nc3cccc(-c4c[nH]c5ncnc(N6CCOCC6)c45)c3)CC2)ccc1F
Task: Thanks in advance: please rank these 4 entries by dTm, highest to lowest. Thanks in advance for listing the labels in the requested order.
Result: c, d, b, a
